Every entry's value here was drawn from patent US20200338203A1.

TGT: T1, Human EphA2 (Ecto) (Human, UniProt P29317 24-537)
T1 construct: extracellular domain
EXPERIMENTAL PROTOCOL: FP competition; competitor Compound 18
Numbered stars: 1 amine (or outer) side, 2 acyl side, 3 side chain; on linkers, the order of the positions; unused ones are H or OH. Bridge positions count the residues as written; N and C are the ends. Square brackets hold non-standard residues; d marks the D form. Ends that are not written are not given here. 1Nal = N[C@@H](Cc1cccc2ccccc12)C(=O)O; TBMB = c1c(C[*:1])cc(C[*:3])cc1C[*:2]; Gly(cPent) = N[C@H](C(=O)O)C1CCCC1; hArg = N=C(N)NCCCC[C@H](N)C(=O)O; Tle = CC(C)(C)[C@H](N)C(=O)O; Pip = O=C(O)[C@@H]1CCCCN1; Aze = O=C(O)[C@@H]1CCN1; Aib = CC(C)(N)C(=O)O; Sar = CNCC(=O)O
READOUT TYPE: Ki (nM)

Previously resolved entries follow.
Ac-[Sar][Sar]A[dD][Gly(cPent)]VTCPWGPFWCPVNRPGC (linker 8-15-22 via TBMB) [Compound 163]    1.33
[Sar][Sar]AHDV[Pip]CPWGPFWCPVNRPGC (linker 8-15-22 via TBMB) [Compound 222]    3.4
Ac-[Sar][Sar]H[dD]VPCPWG[Aib]FWCP[Tle]NR[Aib]GC (linker 7-14-21 via TBMB) [Compound 270]    1.52
Ac-[Sar][Sar]AHDVPCPWGPFWCPVNRPGC (linker 8-15-22 via TBMB) [Compound 193]    0.59
[Sar][Sar]ACPWGPFWCPVNRPAC (linker 4-11-18 via TBMB) [Compound 111]    108
[Sar][Sar]ACP[1Nal]GPFWCPVN[hArg]P[dA]C (linker 4-11-18 via TBMB) [Compound 134]    1.2
[Sar][Sar]AHD[dA]PCPWGPFWCPVNRPGC (linker 8-15-22 via TBMB) [Compound 215]    26
[Sar][Sar]AHDV[Aze]CPWGPFWCPVNRPGC (linker 8-15-22 via TBMB) [Compound 221]    3.1
Ac-[Sar][Sar]A[dD]DVTCP[1Nal]GPF[1Nal]CPVNRPGC (linker 8-15-22 via TBMB) [Compound 283]    0.28

[1] [Sar][Sar]AHDV[Aib]CPWGPFWCPVNRPGC (linker 8-15-22 via TBMB) [Compound 220]
[2] [Sar][Sar]AC[Aib][1Nal]G[Aib]FWCPVNR[Aib]GC (linker 4-11-18 via TBMB) [Compound 135]
IN: Among 1 and 2 , whose measured Ki is the smaller figure? Answer with the label corresponding to your selection.
OUT: 1
(1: 0.83 nM, 2: 43 nM)
